biological target: EPHB1 (UniProt P54762); test: phosphorylation enrichment, bacterial display (enrichment ratio); higher = better substrate or ligand; peptides without Tyr show the background;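 also: 11-residue human phosphosite peptides and single-mutation variants displayed on the E. coli surface, counted by deep sequencing, each peptide's frequency after selection divided by its frequency in the unselected input library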;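 also: frequency after pTyr selection over input frequency; kinase dosed for 20-30% of maximal phosphorylation in three min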
Sequence (P54762 whole entry, looked up): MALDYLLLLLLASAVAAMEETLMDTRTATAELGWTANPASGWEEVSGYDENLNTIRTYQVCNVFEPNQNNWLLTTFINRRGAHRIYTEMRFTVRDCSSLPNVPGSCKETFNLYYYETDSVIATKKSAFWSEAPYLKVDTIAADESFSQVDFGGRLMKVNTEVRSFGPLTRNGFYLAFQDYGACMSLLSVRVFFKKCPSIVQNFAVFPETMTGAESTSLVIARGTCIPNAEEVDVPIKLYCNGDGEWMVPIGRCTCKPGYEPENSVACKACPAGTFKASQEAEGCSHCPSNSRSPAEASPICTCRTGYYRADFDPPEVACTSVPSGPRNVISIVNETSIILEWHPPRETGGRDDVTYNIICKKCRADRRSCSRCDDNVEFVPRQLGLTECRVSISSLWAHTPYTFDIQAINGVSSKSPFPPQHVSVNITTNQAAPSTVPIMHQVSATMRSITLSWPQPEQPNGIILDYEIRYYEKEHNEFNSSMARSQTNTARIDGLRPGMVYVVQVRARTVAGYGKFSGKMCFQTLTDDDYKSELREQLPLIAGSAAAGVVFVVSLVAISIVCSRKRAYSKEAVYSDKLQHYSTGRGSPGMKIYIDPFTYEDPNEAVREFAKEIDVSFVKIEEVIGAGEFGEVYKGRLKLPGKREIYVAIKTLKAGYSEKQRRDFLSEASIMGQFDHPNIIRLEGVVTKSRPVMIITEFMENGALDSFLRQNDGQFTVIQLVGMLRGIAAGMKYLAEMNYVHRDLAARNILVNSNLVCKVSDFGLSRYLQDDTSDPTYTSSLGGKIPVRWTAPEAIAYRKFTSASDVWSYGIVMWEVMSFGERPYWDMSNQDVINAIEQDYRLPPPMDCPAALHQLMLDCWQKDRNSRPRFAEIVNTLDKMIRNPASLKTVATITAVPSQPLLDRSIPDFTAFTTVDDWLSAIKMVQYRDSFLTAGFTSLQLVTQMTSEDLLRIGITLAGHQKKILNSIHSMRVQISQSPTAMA
Measure Name: phosphorylation enrichment

>>> test_value("MTRDIYRASFF [ALK_Y1278_A1274T_YF]")
0.519
>>> test_value("KGIQLYDTPFE [SHB_Y297_YF]")
8.6
>>> test_value("ILCTVYAFKMR [GRM3_Y754_T758M]")
0.97
>>> test_value("FNDSAYNQQLI [ZPLD1_Y198_T197A_YF]")
0.489
>>> test_value("SELVCYDARVH [MET_Y971_R970C]")
0.592
>>> test_value("DNEALYDICFR [TUBB2B_Y208]")
4.63
>>> test_value("EKHGQYLIGHG [EPHB4_Y581_D576E]")
0.413
>>> test_value("SVVVPYEPPEI [TP53_Y220_V225I]")
0.552
>>> test_value("YIATQYSLRPR [LBR_Y166]")
0.511
>>> test_value("RSRSSYTHGLN [MYCT1_Y116]")
1
>>> test_value("QFNPEYVQQAS [LRRC7_Y1058_H1054Y_YF]")
1.02
>>> test_value("PVDVAYRRGFF [PLEC_Y2967_YF]")
0.456
>>> test_value("GGTPLYRDRQG [AGXT_Y194_M195R]")
0.383
>>> test_value("IGGHAYGDQYR [IDH1_Y135_R132G]")
0.405
>>> test_value("ADKAAYLQSLN [MYH2_Y389]")
0.458
>>> test_value("KLYRVYCDMNT [FGB_Y269_P265L]")
0.769
>>> test_value("RGRSTCFWPRP [GAGE12J_Y9_Y9C_YF]")
0.782
>>> test_value("SLDLSYYPTSS [EMD_Y181]")
0.614
>>> test_value("RSACTYLASHL [PLK3_Y615]")
0.534
>>> test_value("VRTGIYHGGKP [PIK3CA_Y361_E365K]")
0.268
>>> test_value("MKVPVYETPAG [PGM5_Y358]")
11.7
>>> test_value("TFMKKYPKVFL [CNBD1_Y70_Q69K]")
0.508
>>> test_value("VPFAQYLAMNK [HARS1_Y138_R137Q]")
0.488
>>> test_value("GHGEEYPAAGA [NOTCH3_Y2221]")
0.41
>>> test_value("VLPIDYFFPPQ [AR_Y552_YF]")
0.708
>>> test_value("LPKEQYLCTKE [AFG3L2_Y614_Y616C]")
0.463
>>> test_value("MIRSTYALGGL [CPS1_Y590_A589T]")
0.4
>>> test_value("RHNEIYEIKVD [LGR5_Y387]")
0.312
>>> test_value("CEDGTYSPEIS [PTDSS1_Y424]")
0.649

---

biological target: EPHB2 (UniProt P29323); experiment: phosphorylation enrichment, bacterial display (enrichment ratio); higher = better substrate or ligand; peptides without Tyr show the background
Sequence (P29323 whole entry, looked up): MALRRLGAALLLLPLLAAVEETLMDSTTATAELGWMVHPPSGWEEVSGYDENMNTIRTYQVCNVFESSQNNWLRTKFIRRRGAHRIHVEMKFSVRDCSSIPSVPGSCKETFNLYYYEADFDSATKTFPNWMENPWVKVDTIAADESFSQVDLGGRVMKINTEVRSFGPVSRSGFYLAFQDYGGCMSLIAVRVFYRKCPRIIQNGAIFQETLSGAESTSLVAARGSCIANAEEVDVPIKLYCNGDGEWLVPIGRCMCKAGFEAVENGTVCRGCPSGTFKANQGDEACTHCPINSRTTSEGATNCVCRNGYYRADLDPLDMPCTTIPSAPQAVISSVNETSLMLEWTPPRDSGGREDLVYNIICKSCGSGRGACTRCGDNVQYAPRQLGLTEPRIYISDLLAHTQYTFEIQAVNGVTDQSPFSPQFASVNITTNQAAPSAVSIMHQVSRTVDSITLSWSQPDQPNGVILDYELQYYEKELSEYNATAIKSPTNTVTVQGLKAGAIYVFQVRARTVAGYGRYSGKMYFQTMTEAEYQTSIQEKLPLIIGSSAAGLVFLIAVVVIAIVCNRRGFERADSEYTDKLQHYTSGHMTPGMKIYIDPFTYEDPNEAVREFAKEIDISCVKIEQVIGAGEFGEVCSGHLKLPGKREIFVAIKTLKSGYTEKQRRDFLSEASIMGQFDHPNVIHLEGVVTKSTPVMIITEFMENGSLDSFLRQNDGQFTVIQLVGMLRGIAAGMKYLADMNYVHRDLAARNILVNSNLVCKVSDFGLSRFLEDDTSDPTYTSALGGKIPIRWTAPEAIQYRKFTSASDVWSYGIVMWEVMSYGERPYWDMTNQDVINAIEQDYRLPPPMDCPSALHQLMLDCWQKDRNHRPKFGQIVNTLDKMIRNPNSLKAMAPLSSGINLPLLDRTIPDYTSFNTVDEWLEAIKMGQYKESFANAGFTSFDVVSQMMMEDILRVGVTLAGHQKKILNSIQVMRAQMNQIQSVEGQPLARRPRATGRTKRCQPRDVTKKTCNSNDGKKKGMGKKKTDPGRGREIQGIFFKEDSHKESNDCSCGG
Binning of phosphorylation enrichment into classes: low range = under 0.5, mid range = from 0.5 up to 0.6, high range = 0.6 and over

>>> assigned_category("SLFNGYVFSGM [NEIL3_Y71_V76M_YF]")
"mid range"
>>> assigned_category("WNDLDYMDSRR [GAA_Y407]")
"mid range"
>>> assigned_category("RLLRGYDQSAF [HLA-C_Y137_YF]")
"mid range"
>>> assigned_category("RPSGRYPVARR [SHANK3_Y1569]")
"mid range"
>>> assigned_category("ALWYIYLHTRS [ENG_Y614_S615L]")
"low range"
>>> assigned_category("SMAKFYASEIA [ACADSB_Y373_YF]")
"low range"
>>> assigned_category("IPGVEYLVSII [TNC_Y1775]")
"mid range"
>>> assigned_category("QQLQGYIPSNF [FRK_Y99_YF]")
"high range"
>>> assigned_category("TEDELYQLFLQ [RASGRP2_Y378_S381F]")
"high range"
>>> assigned_category("DKITQYVEEVR [STX2_Y49_K54R]")
"mid range"
>>> assigned_category("MKVPVYETPAG [PGM5_Y358]")
"high range"
>>> assigned_category("YLEKYYKFGSR [NNMT_Y25]")
"low range"
>>> assigned_category("IGKDLYANNVL [ACTA2_Y296_R292G]")
"high range"
>>> assigned_category("GYRPVYSEDEQ [CHST6_Y362]")
"high range"
>>> assigned_category("ETKAFYPEEIS [HSPA1A_Y115]")
"high range"
>>> assigned_category("YCRHNYGVGES [HLA-DRB1_Y112_V115G]")
"low range"
>>> assigned_category("RIGRKCKKVRF [F8_Y442_Y442C]")
"mid range"
>>> assigned_category("VTQEPYELYCE [CBL_Y368_Q367P]")
"high range"
>>> assigned_category("GPIIRYDLGGA [CYP11B1_Y81_F79I]")
"low range"
>>> assigned_category("VSNFNYFYHRE [KCNA1_Y413]")
"mid range"
>>> assigned_category("DFDNLYFWDQD [ERBB2_Y1221_A1216D_YF]")
"high range"
>>> assigned_category("RGFRVYFTPDS [PTPRF_Y450_YF]")
"high range"
>>> assigned_category("KRYRIYHLATS [BRCA2_Y3009]")
"low range"
>>> assigned_category("KVMANYMFKAG [MAML2_Y513_YF]")
"high range"
>>> assigned_category("TFMKKYPKVFL [CNBD1_Y70_Q69K]")
"low range"
>>> assigned_category("PELINYQQHNS [BTK_Y361_H362Q]")
"high range"
>>> assigned_category("VRFTEYETQVK [TARDBP_Y155]")
"high range"
>>> assigned_category("RIILLYIFLKN [STXBP1_Y411]")
"low range"
>>> assigned_category("SLDLSYYHTSS [EMD_Y181_P183H]")
"mid range"
>>> assigned_category("ANFTEYVATSW [CDKL5_Y171_R175S_YF]")
"high range"
>>> assigned_category("KVPCHYDDPGK [FOXG1_Y246_R244C]")
"mid range"
>>> assigned_category("LQRCKYSHMEP [TEX45_Y434]")
"high range"
>>> assigned_category("PIFLFYLMDLS [ITGB2_Y131_D128Y_YF]")
"high range"
>>> assigned_category("FADIAYNYHHG [PAH_Y166_R169H]")
"low range"
>>> assigned_category("ADARMYGVLLW [PLP1_Y207_P211L]")
"high range"
>>> assigned_category("VAVTKYCKEEL [ATP7B_Y1078]")
"mid range"
>>> assigned_category("AAVPAYDKIRV [STXBP2_Y401]")
"low range"
>>> assigned_category("IGCHAYGDQYR [IDH1_Y135_R132C]")
"mid range"
>>> assigned_category("VMLENYSNLVS [ZFP69_Y109]")
"high range"
>>> assigned_category("TDLAYYLVRKG [ASL_Y376]")
"high range"
>>> assigned_category("FSVDSYDSSVR [KCNQ1_Y461_G460S]")
"high range"
>>> assigned_category("LRAGVYREKDQ [DNM2_Y626_P627R]")
"low range"
>>> assigned_category("MTRDIYRASFF [ALK_Y1278_A1274T_YF]")
"low range"
>>> assigned_category("PVKTPYSLKRW [BMPR2_Y979_R974P]")
"high range"
>>> assigned_category("HEHVGYTTLNR [CHN1_Y148_Y143H]")
"low range"
>>> assigned_category("DVLPEYKLQAP [KCNH2_Y388]")
"mid range"
>>> assigned_category("KAEQLYIGVTV [EFHC2_Y509_E507Q]")
"high range"

The reported numbers originate from the supplement of paper PMC10065799.
